- target.desc: human V1a receptor (Homo sapiens, UniProt P37288)
- Construct: expressed in transfected cells; host or cells: CHO K1 (ATCC), also stably transfected with a modified aequorin
- Sequence (P37288 whole entry): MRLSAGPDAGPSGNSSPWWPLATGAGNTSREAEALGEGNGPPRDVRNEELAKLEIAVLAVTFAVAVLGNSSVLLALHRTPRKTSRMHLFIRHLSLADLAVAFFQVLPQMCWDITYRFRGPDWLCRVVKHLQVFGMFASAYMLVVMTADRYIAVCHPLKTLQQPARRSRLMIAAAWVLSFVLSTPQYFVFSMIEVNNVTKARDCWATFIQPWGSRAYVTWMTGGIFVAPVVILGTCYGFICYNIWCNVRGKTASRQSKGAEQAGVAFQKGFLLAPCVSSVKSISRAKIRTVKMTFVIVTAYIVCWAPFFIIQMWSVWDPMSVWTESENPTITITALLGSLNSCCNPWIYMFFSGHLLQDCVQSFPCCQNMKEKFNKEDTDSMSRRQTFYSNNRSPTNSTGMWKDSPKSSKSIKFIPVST
- procedure.details: Cellular in vitro assay for determining vasopressin receptor activity, V1a receptor cell line (CHO, aequorin luminescence)
- Type: cell-based
- details: selectivity ratio IC50 hV2 / IC50 hV1a
quantity: ratio IC50 hV2/hV1a

>>> df
                                    compound                               target_desc             quantity  data_value
 0  O=C(c1ncccc1-n1cnc(Cn2nc(-c3ccc(Cl)cc3)n(C[C@@H](O)C(F)(F)F)c2=O)n1)N1CCOC(C(F)(F)F)C1 (stereo partly shown)  human V1a receptor (Homo sapiens, UniProt P37288)  ratio IC50 hV2/hV1a        42.7
 1  CC(F)(F)CNc1ccncc1-n1cnc(Cn2nc(-c3ccc(Cl)cc3)n(C[C@H](O)C(F)(F)F)c2=O)n1  human V1a receptor (Homo sapiens, UniProt P37288)  ratio IC50 hV2/hV1a         0.5
 2  O=C(NC1CC(F)(F)C1)c1ncccc1-n1cnc(Cn2nc(-c3ccc(Cl)cc3)n(C[C@@H](O)C(F)(F)F)c2=O)n1  human V1a receptor (Homo sapiens, UniProt P37288)  ratio IC50 hV2/hV1a        21.2
 3  O=C(Nc1ccncc1-n1cnc(Cn2nc(-c3ccc(Cl)cc3)n(C[C@H](O)C(F)(F)F)c2=O)n1)C1CC1(F)F (mixture of isomers)  human V1a receptor (Homo sapiens, UniProt P37288)  ratio IC50 hV2/hV1a        22.1
 4  CNC(=O)c1cc(Cl)ccc1-n1cnc(Cn2nc(-c3ccc(Cl)cc3)n(C[C@H](O)C(F)(F)F)c2=O)n1  human V1a receptor (Homo sapiens, UniProt P37288)  ratio IC50 hV2/hV1a         3.9
 5  Cc1cc(CC(=O)Nc2ncccc2-n2cnc(Cn3nc(-c4ccc(Cl)cc4)n(C[C@H](O)C(F)(F)F)c3=O)n2)on1  human V1a receptor (Homo sapiens, UniProt P37288)  ratio IC50 hV2/hV1a        14.0
 6  CC1(O)CCN(C(=O)c2ccccc2-n2cnc(Cn3nc(-c4ccc(Cl)cc4)n(C[C@H](O)C(F)(F)F)c3=O)n2)C1 (mixture of isomers)  human V1a receptor (Homo sapiens, UniProt P37288)  ratio IC50 hV2/hV1a        39.8
 7  O=C(Nc1ncccc1-n1cnc(Cn2nc(-c3ccc(Cl)cc3)n(C[C@H](O)C(F)(F)F)c2=O)n1)c1cncc(F)c1  human V1a receptor (Homo sapiens, UniProt P37288)  ratio IC50 hV2/hV1a        66.0
 8  CC(C)(O)CNc1ccncc1-n1cnc(Cn2nc(-c3ccc(Cl)cc3)n(C[C@H](O)C(F)(F)F)c2=O)n1  human V1a receptor (Homo sapiens, UniProt P37288)  ratio IC50 hV2/hV1a         0.4
 9  CC(C)C(C)NC(=O)c1ccccc1-n1cnc(Cn2nc(-c3ccc(Cl)cc3)n(C[C@H](O)C(F)(F)F)c2=O)n1 (mixture of isomers)  human V1a receptor (Homo sapiens, UniProt P37288)  ratio IC50 hV2/hV1a        37.2
10  CN(CC1CC1)C(=O)c1ccccc1-n1cnc(Cn2nc(-c3ccc(Cl)cc3)n(C[C@H](O)C(F)(F)F)c2=O)n1  human V1a receptor (Homo sapiens, UniProt P37288)  ratio IC50 hV2/hV1a       536.1
11  O=c1n(Cc2ncn(-c3cnccc3N3CCS(=O)(=O)CC3)n2)nc(-c2ccc(Cl)cc2)n1C[C@H](O)C(F)(F)F  human V1a receptor (Homo sapiens, UniProt P37288)  ratio IC50 hV2/hV1a        35.0
12  O=C(NCC(F)(F)F)c1ncccc1-n1cnc(Cn2nc(-c3ccc(Cl)cc3)n(C[C@H](O)C(F)(F)F)c2=O)n1  human V1a receptor (Homo sapiens, UniProt P37288)  ratio IC50 hV2/hV1a        31.5
